Entries below carry reported pIC50 on Mu-type opioid receptor (Mus musculus).
Sequence (P42866 whole entry): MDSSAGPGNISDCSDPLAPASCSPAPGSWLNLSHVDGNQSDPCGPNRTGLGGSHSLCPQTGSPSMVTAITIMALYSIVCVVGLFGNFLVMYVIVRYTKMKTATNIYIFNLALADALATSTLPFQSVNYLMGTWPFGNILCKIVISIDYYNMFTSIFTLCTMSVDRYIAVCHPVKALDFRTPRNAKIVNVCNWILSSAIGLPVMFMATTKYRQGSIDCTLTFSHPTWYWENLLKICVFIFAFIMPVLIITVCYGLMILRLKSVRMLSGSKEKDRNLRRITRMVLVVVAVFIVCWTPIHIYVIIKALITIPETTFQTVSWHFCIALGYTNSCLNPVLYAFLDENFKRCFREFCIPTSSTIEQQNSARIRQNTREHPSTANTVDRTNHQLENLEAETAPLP
pIC50: −log10 of the molar value.
assay-readout: pIC50

>>> meas_value("C[C@H](c1ccccc1)[C@H](NC(=O)[C@H](Cc1ccccc1)NC(=O)[C@@H]1CCCN1C(=O)[C@@H](N)Cc1ccc(O)cc1)C(N)=O")
6.63
>>> meas_value("C[C@@H](c1ccccc1)[C@H](NC(=O)[C@H](Cc1ccccc1)NC(=O)[C@@H]1CCCN1C(=O)[C@@H](N)Cc1ccc(O)cc1)C(N)=O")
8.04

---

- target: Mu-type opioid receptor (Rattus norvegicus)
- Sequence (P33535 whole entry): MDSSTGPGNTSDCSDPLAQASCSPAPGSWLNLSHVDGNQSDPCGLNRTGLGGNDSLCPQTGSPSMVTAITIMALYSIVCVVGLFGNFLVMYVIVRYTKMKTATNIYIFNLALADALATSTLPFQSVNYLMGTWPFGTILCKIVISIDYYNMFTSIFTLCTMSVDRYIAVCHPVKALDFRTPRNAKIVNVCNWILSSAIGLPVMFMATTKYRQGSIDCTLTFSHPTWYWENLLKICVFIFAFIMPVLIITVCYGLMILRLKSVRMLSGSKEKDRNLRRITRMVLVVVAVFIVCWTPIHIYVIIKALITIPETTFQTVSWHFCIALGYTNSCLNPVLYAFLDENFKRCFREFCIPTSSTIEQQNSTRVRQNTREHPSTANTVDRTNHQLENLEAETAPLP
- test-summary: Displacement of [3H]DAMGO from Opioid receptor mu 1 of rat brain membranes
- Assay type: cell membranes, Membrane
Threshold-based label: Ki under 70 nM gives true, Ki not under 70 nM gives false.

>>> assigned_label("C[C@@H](c1ccccc1)[C@H](NC(=O)[C@H](Cc1ccccc1)NC(=O)[C@@H]1CCCN1C(=O)[C@@H](N)Cc1ccc(O)cc1)C(N)=O")
"true"
>>> assigned_label("C[C@H](c1ccccc1)[C@@H](NC(=O)[C@H](Cc1ccccc1)NC(=O)[C@@H]1CCCN1C(=O)[C@@H](N)Cc1ccc(O)cc1)C(N)=O")
"false"
>>> assigned_label("C[C@@H](c1ccccc1)[C@@H](NC(=O)[C@H](Cc1ccccc1)NC(=O)[C@@H]1CCCN1C(=O)[C@@H](N)Cc1ccc(O)cc1)C(N)=O")
"false"
>>> assigned_label("C[C@@H](c1ccccc1)[C@@H](NC(=O)[C@H](Cc1c[nH]c2ccccc12)NC(=O)[C@@H]1CCCN1C(=O)[C@@H](N)Cc1ccc(O)cc1)C(N)=O")
"false"
>>> assigned_label("C[C@@H](c1ccccc1)[C@H](NC(=O)[C@H](Cc1c[nH]c2ccccc12)NC(=O)[C@@H]1CCCN1C(=O)[C@@H](N)Cc1ccc(O)cc1)C(N)=O")
"true"
>>> assigned_label("C[C@H](c1ccccc1)[C@@H](NC(=O)[C@H](Cc1c[nH]c2ccccc12)NC(=O)[C@@H]1CCCN1C(=O)[C@@H](N)Cc1ccc(O)cc1)C(N)=O")
"true"
>>> assigned_label("C[C@H](c1ccccc1)[C@H](NC(=O)[C@H](Cc1c[nH]c2ccccc12)NC(=O)[C@@H]1CCCN1C(=O)[C@@H](N)Cc1ccc(O)cc1)C(N)=O")
"true"

---

- target: UniProt P33535
- test-summary: Displacement of [3H]endomorphin-2 from Opioid receptor mu 1 of rat brain membranes
- Assay type: cell membranes, Membrane
pKi: −log10 of the molar value.
assay-readout: pKi

>>> meas_value("C[C@H](c1ccccc1)[C@@H](NC(=O)[C@H](Cc1ccccc1)NC(=O)[C@@H]1CCCN1C(=O)[C@@H](N)Cc1ccc(O)cc1)C(N)=O")
6.90
>>> meas_value("C[C@@H](c1ccccc1)[C@@H](NC(=O)[C@H](Cc1ccccc1)NC(=O)[C@@H]1CCCN1C(=O)[C@@H](N)Cc1ccc(O)cc1)C(N)=O")
7.32
>>> meas_value("C[C@H](c1ccccc1)[C@H](NC(=O)[C@H](Cc1ccccc1)NC(=O)[C@@H]1CCCN1C(=O)[C@@H](N)Cc1ccc(O)cc1)C(N)=O")
7.63
>>> meas_value("C[C@H](c1ccccc1)[C@H](NC(=O)[C@H](Cc1c[nH]c2ccccc12)NC(=O)[C@@H]1CCCN1C(=O)[C@@H](N)Cc1ccc(O)cc1)C(N)=O")
7.63
>>> meas_value("C[C@@H](c1ccccc1)[C@@H](NC(=O)[C@H](Cc1c[nH]c2ccccc12)NC(=O)[C@@H]1CCCN1C(=O)[C@@H](N)Cc1ccc(O)cc1)C(N)=O")
7.33
>>> meas_value("C[C@@H](c1ccccc1)[C@H](NC(=O)[C@H](Cc1ccccc1)NC(=O)[C@@H]1CCCN1C(=O)[C@@H](N)Cc1ccc(O)cc1)C(N)=O")
9.01
>>> meas_value("C[C@@H](c1ccccc1)[C@H](NC(=O)[C@H](Cc1c[nH]c2ccccc12)NC(=O)[C@@H]1CCCN1C(=O)[C@@H](N)Cc1ccc(O)cc1)C(N)=O")
9.33
>>> meas_value("C[C@H](c1ccccc1)[C@@H](NC(=O)[C@H](Cc1c[nH]c2ccccc12)NC(=O)[C@@H]1CCCN1C(=O)[C@@H](N)Cc1ccc(O)cc1)C(N)=O")
7.36

---

- Organism: Rattus norvegicus
- test-summary: In vitro percent maximal stimulation of [35S]GTP-gamma-S, binding by the compound in rat brain membranes
- Format: functional
- condition-set: Membrane
assay-readout: Max stimulation (%)

>>> meas_value("C[C@@H](c1ccccc1)[C@H](NC(=O)[C@@H]1CCCN1C(=O)[C@@H](N)Cc1ccc(O)cc1)C(=O)N[C@@H](Cc1ccccc1)C(N)=O")
160
>>> meas_value("C[C@H](c1ccccc1)[C@@H](NC(=O)[C@@H]1CCCN1C(=O)[C@@H](N)Cc1ccc(O)cc1)C(=O)N[C@@H](Cc1ccccc1)C(N)=O")
105
>>> meas_value("C[C@@H](c1ccccc1)[C@H](NC(=O)[C@H](Cc1c[nH]c2ccccc12)NC(=O)[C@@H]1CCCN1C(=O)[C@@H](N)Cc1ccc(O)cc1)C(N)=O")
163
>>> meas_value("C[C@H](c1ccccc1)[C@H](NC(=O)[C@H](Cc1ccccc1)NC(=O)[C@@H]1CCCN1C(=O)[C@@H](N)Cc1ccc(O)cc1)C(N)=O")
132
>>> meas_value("C[C@H](c1ccccc1)[C@@H](NC(=O)[C@H](Cc1c[nH]c2ccccc12)NC(=O)[C@@H]1CCCN1C(=O)[C@@H](N)Cc1ccc(O)cc1)C(N)=O")
114
>>> meas_value("C[C@H](c1ccccc1)[C@H](NC(=O)[C@@H]1CCCN1C(=O)[C@@H](N)Cc1ccc(O)cc1)C(=O)N[C@@H](Cc1ccccc1)C(N)=O")
146
>>> meas_value("C[C@H](c1ccccc1)[C@H](NC(=O)[C@H](Cc1c[nH]c2ccccc12)NC(=O)[C@@H]1CCCN1C(=O)[C@@H](N)Cc1ccc(O)cc1)C(N)=O")
126
>>> meas_value("NC(=O)[C@H](Cc1ccccc1)NC(=O)[C@H](Cc1ccccc1)NC(=O)[C@@H]1CCCN1C(=O)[C@@H](N)Cc1ccc(O)cc1 [ENDOMORPHIN 2]")
213
>>> meas_value("NC(=O)[C@H](Cc1ccccc1)NC(=O)[C@H](Cc1c[nH]c2ccccc12)NC(=O)[C@@H]1CCCN1C(=O)[C@@H](N)Cc1ccc(O)cc1 [ENDOMORPHIN-1]")
237
>>> meas_value("C[C@@H](c1ccccc1)[C@H](NC(=O)[C@H](Cc1ccccc1)NC(=O)[C@@H]1CCCN1C(=O)[C@@H](N)Cc1ccc(O)cc1)C(N)=O")
148
>>> meas_value("C[C@@H](c1ccccc1)[C@@H](NC(=O)[C@H](Cc1c[nH]c2ccccc12)NC(=O)[C@@H]1CCCN1C(=O)[C@@H](N)Cc1ccc(O)cc1)C(N)=O")
124
>>> meas_value("C[C@H](c1ccccc1)[C@@H](NC(=O)[C@H](Cc1ccccc1)NC(=O)[C@@H]1CCCN1C(=O)[C@@H](N)Cc1ccc(O)cc1)C(N)=O")
108
>>> meas_value("C[C@@H](c1ccccc1)[C@@H](NC(=O)[C@@H]1CCCN1C(=O)[C@@H](N)Cc1ccc(O)cc1)C(=O)N[C@@H](Cc1ccccc1)C(N)=O")
103
>>> meas_value("C[C@@H](c1ccccc1)[C@@H](NC(=O)[C@H](Cc1ccccc1)NC(=O)[C@@H]1CCCN1C(=O)[C@@H](N)Cc1ccc(O)cc1)C(N)=O")
115
